Parameter Max ΔF/F0: see the listing below.
- Study System: TAS1R2/TAS1R3 (Homo sapiens, UniProt Q7RTX0+Q8TE23)
- Sequence (Q8TE23 20-839): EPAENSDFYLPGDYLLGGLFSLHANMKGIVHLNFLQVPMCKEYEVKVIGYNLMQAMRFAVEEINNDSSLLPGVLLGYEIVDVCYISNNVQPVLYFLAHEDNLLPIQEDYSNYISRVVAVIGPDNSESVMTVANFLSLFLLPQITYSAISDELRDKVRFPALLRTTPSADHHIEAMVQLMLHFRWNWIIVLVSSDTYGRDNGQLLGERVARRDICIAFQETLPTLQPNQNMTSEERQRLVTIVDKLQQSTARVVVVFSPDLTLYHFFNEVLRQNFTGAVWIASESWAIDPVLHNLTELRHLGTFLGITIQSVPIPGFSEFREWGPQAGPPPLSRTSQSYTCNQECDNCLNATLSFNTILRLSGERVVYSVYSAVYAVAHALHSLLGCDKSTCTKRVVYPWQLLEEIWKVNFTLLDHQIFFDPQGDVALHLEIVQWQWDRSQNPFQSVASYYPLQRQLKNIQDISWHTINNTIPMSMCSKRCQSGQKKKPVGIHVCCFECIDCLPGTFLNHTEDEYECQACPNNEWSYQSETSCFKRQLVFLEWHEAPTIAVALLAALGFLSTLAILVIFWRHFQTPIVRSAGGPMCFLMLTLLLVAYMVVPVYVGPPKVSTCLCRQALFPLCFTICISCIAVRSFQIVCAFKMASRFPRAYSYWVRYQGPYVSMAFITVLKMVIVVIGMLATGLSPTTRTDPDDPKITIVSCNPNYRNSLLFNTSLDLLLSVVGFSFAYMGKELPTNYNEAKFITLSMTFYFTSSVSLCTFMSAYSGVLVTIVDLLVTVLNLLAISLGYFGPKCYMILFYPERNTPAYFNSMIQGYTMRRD
- Sequence (Q7RTX0 21-852): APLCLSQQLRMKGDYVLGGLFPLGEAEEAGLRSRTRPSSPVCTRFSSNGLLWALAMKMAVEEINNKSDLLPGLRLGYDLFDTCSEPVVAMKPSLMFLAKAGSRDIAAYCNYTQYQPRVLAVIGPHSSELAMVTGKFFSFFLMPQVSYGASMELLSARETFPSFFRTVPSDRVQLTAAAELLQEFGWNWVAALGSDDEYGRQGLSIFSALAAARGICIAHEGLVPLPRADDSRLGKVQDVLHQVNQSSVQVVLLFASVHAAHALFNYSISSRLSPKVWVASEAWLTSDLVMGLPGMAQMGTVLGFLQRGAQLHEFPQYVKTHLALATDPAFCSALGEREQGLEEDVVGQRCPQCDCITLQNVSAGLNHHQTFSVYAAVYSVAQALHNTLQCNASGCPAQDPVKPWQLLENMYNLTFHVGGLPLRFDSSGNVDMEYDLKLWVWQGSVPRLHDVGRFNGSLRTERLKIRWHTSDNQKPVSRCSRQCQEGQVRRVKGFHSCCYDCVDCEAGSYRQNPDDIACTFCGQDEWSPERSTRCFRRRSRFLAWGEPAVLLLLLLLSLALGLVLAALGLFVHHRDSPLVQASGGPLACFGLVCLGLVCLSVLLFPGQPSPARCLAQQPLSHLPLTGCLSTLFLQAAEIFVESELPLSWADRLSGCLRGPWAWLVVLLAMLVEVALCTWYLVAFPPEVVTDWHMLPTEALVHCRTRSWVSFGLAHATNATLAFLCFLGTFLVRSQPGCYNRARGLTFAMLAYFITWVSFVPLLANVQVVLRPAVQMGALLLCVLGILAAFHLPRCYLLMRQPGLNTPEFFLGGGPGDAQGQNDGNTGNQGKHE
- Assay Notes: Calcium mobilization assay, HEK293T-Gα16gust44 cells expressing the sweet taste receptor
- Measurement Parameters: maximal signal amplitude, sweet compound alone
Quantity Measured: Max ΔF/F0

INSERT INTO assay_data (molecule, study_system, observed_measurement) VALUES
  ('C[C@H](CC[C@@H](O[C@@H]1O[C@H](CO[C@@H]2O[C@H](CO)[C@@H](O)[C@H](O)[C@H]2O)[C@@H](O)[C@H](O)[C@H]1O[C@@H]1O[C@H](CO)[C@@H](O)[C@H](O)[C@H]1O)C(C)(C)O)[C@H]1CC[C@@]2(C)[C@@H]3CC=C4[C@@H](CC[C@H](O[C@@H]5O[C@H](CO[C@@H]6O[C@H](CO)[C@@H](O)[C@H](O)[C@H]6O)[C@@H](O)[C@H](O)[C@H]5O)C4(C)C)[C@]3(C)[C@H](O)C[C@]12C [Mogroside V, mogroside V]', 'TAS1R2/TAS1R3 (Homo sapiens, UniProt Q7RTX0+Q8TE23)', 0.14),
  ('O=C(CO)[C@H](O)[C@H](O)[C@H](O)CO', 'TAS1R2/TAS1R3 (Homo sapiens, UniProt Q7RTX0+Q8TE23)', 0.50),
  ('OC[C@H]1O[C@@](CO)(O[C@H]2O[C@H](CO)[C@@H](O)[C@H](O)[C@H]2O)[C@@H](O)[C@@H]1O [Sucrose, reference compound]', 'TAS1R2/TAS1R3 (Homo sapiens, UniProt Q7RTX0+Q8TE23)', 0.10),
  ('OC[C@@H](O)[C@@H](O)CO', 'TAS1R2/TAS1R3 (Homo sapiens, UniProt Q7RTX0+Q8TE23)', 0.06),
  ('C=C1C[C@@]23CC[C@H]4[C@@](C)(CCC[C@@]4(C)C(=O)O[C@@H]4O[C@H](CO)[C@@H](O)[C@H](O[C@@H]5O[C@H](CO)[C@@H](O)[C@H](O)[C@H]5O)[C@H]4O[C@@H]4O[C@H](CO)[C@@H](O)[C@H](O)[C@H]4O)[C@@H]2CC[C@]1(O[C@@H]1O[C@H](CO)[C@@H](O)[C@H](O[C@@H]2O[C@H](CO)[C@@H](O)[C@H](O)[C@H]2O)[C@H]1O[C@@H]1O[C@H](CO)[C@@H](O)[C@H](O)[C@H]1O)C3 [RebM, Rebaudioside M]', 'TAS1R2/TAS1R3 (Homo sapiens, UniProt Q7RTX0+Q8TE23)', 0.16),
  ('OC[C@H]1O[C@H](O[C@]2(CCl)O[C@H](CCl)[C@@H](O)[C@@H]2O)[C@H](O)[C@@H](O)[C@H]1Cl', 'TAS1R2/TAS1R3 (Homo sapiens, UniProt Q7RTX0+Q8TE23)', 0.13),
  ('COC(=O)[C@H](Cc1ccccc1)NC(=O)[C@H](CC(=O)O)NCCC(C)(C)C', 'TAS1R2/TAS1R3 (Homo sapiens, UniProt Q7RTX0+Q8TE23)', 0.16);

====

- Study System: TAS2R31 (Homo sapiens)
- Sequence (P59538 whole entry): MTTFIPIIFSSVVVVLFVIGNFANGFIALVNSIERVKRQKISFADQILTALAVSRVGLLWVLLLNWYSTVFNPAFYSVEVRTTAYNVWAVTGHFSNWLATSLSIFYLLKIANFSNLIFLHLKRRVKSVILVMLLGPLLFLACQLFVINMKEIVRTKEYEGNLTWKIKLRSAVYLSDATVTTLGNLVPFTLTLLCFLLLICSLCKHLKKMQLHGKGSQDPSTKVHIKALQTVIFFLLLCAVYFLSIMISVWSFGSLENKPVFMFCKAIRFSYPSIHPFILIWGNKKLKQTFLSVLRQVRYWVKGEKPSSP
- Assay Notes: Calcium mobilization assay, HEK293T-Gα16gust44 cells expressing TAS2R31
- Measurement Parameters: maximal concentration tested: sucralose 100 mM, neotame 30 µM, Ace-K 300 mM, RebA 4 mM, RebM 4 mM, mogroside V 5 mM, erythritol 200 mM, D-allulose 500 mM, thaumatin 100 mM
Quantity Measured: Response of TAS2R31

INSERT INTO measurements (compound, study_system, observed_measurement) VALUES
  ('OC[C@H]1O[C@H](O[C@]2(CCl)O[C@H](CCl)[C@@H](O)[C@@H]2O)[C@H](O)[C@@H](O)[C@H]1Cl [Sucralose, sucralose]', 'TAS2R31 (Homo sapiens)', '§^a'),
  ('COC(=O)[C@H](Cc1ccccc1)NC(=O)[C@H](CC(=O)O)NCCC(C)(C)C [Neotame]', 'TAS2R31 (Homo sapiens)', '−'),
  ('O=C(CO)[C@H](O)[C@H](O)[C@H](O)CO [D-allulose]', 'TAS2R31 (Homo sapiens)', '−');
